Each item that follows carries a reported melting point.

These solved cases illustrate the format of a correct answer.
# Compound, Observed result
data = [
    ("CCCNC(=O)c1ccc(C)c(-c2nc(NCCN(C)C(=O)OC(C)(C)C)nc3c2ccc(=O)n3-c2c(F)cccc2F)c1", "115 to 118 °C"),
    ("Cc1ccc(C(=O)NC2CC2)cc1-c1nc(NCCN(C)C)nc2c1ccc(=O)n2-c1c(F)cccc1F", "214.7 to 217.5 °C"),
]

Could you now look at the following compound, please?
[Q] // returns reported melting point for input Cc1ccc(C(=O)NC2CC2)cc1-c1nc(NC2CC(C)(C)NC(C)(C)C2)nc2c1ccc(=O)n2-c1c(F)cccc1F
[A] 326.3 to 327.9 °C

====

Each item that follows carries a reported melting point.

# Molecule, Quantity measured, Observed result
records = [
    ("CCCNC(=O)c1ccc(C)c(-c2nc(N(C)CCCN(C)C)nc3c2ccc(=O)n3-c2c(F)cccc2F)c1 [Example 104]", "melting point", "104 to 109 °C"),
    ("CCCNCCNc1nc(-c2cc(C(=O)NC3CC3)ccc2C)c2ccc(=O)n(-c3c(F)cccc3F)c2n1 [Example 24]", "melting point", "120 to 134 °C"),
    ("Cc1c(F)cc(C(=O)NC2CC2)cc1-c1nc(NC(CO)CO)nc2c1ccc(=O)n2-c1c(F)cccc1F [18(e)]", "melting point", "214.2 to 217.5 °C"),
]

[Q] // returns reported melting point for input CCCNC(=O)c1ccc(C)c(-c2nc(NCCN(C)C)nc3c2ccc(=O)n3-c2c(F)cccc2F)c1 [Example 105]
[A] 139 to 142 °C

[Q] Same again, this time with Cc1ccc(NC(=O)c2ccsc2)cc1-c1nc(N2CCC(N)CC2)nc2c1ccc(=O)n2-c1c(F)cccc1F [Example 32]
[A] 183.8 to 187.9 °C

[Q] Same again, this time with Cc1ccc(C(=O)NCc2ccccc2)cc1-c1nc(NCc2ncc[nH]2)nc2c1ccc(=O)n2-c1c(F)cccc1F [116(c)]
[A] 185 to 190 °C (dec.)
